- Tested on: activation of MAPK within vascular endothelial cells induced by VEGF stimulation
- test summary: Inhibitory activity against activation of MAPK within vascular endothelial cells induced by VEGF stimulation
- Format: cell-based
- assay conditions: human funicular venous vascular endothelial cells, VEGF 50 ng/ml, phosphorylated MAPK by immunoblotting
What pIC50 was measured for each of the following?
Give bare numbers, as −log10 of the molar value.

[[record]]
compound_structure_string = "COc1cc2nccc(Oc3ccc(NC(=O)Nc4ccc(C)cn4)c(C)c3C)c2cc1OC"
target = "activation of MAPK within vascular endothelial cells induced by VEGF stimulation"
value = 8.38

[[record]]
compound_structure_string = "COc1ccccc1NC(=O)Nc1ccc(Oc2ccnc3cc(OC)c(OC)cc23)c(C)c1C"
target = "activation of MAPK within vascular endothelial cells induced by VEGF stimulation"
value = 8.77

[[record]]
compound_structure_string = "CCNC(=O)Nc1ccc(Oc2ccnc3cc(OC)c(OC)cc23)cc1F"
target = "activation of MAPK within vascular endothelial cells induced by VEGF stimulation"
value = 7.96

[[record]]
compound_structure_string = "COc1cc2nccc(Oc3ccc(NC(=O)Nc4cccc(F)c4OC)c(C)c3C)c2cc1OC"
target = "activation of MAPK within vascular endothelial cells induced by VEGF stimulation"
value = 8.28

[[record]]
compound_structure_string = "COc1cc2nccc(Oc3ccc(NC(=O)Nc4ccc(Br)cn4)c(Cl)c3)c2cc1OC"
target = "activation of MAPK within vascular endothelial cells induced by VEGF stimulation"
value = 7.96


# return pIC50 for each item in the list
1. COc1cc2nccc(Oc3ccc(NC(=O)Nc4ccc(Cl)cc4C)c(C)c3C)c2cc1OC
2. COc1cc2nccc(Oc3ccc(NC(=O)Nc4ccccn4)c(C)c3C)c2cc1OC
3. CCCNC(=O)Nc1ccc(Oc2ccnc3cc(OC)c(OC)cc23)cc1[N+](=O)[O-]
4. COc1cc2nccc(Oc3cc(C)c(NC(=O)Nc4ccccc4C)cc3C)c2cc1OC
5. COc1cc2nccc(Oc3ccc(NC(=O)Nc4ccccc4C)c(C)c3C)c2cc1OC
6. COCCOc1cc2nccc(Oc3cc(C)c(NC(=O)Nc4ccc(F)cc4F)cc3C)c2cc1OC
7. COc1cc2nccc(Oc3ccc(NC(=O)Nc4ccc(F)cc4F)c(C)c3C)c2cc1OC
8. COc1ccc(NC(=O)Nc2ccc(Oc3ccnc4cc(OC)c(OC)cc34)c(C)c2C)cc1

Reply:
1: 8.14; 2: 8.46; 3: 8.40; 4: 8.23; 5: 8.60; 6: 8.29; 7: 9.22; 8: 8.48

Hi team, please reply with pIC50 for each item in this list.
1. COc1cc2nccc(Oc3ccc(NC(=O)Nc4ccc(F)cc4C)c(C)c3C)c2cc1OC
2. COc1cc2nccc(Oc3ccc(NC(=O)Nc4ccc(C)cn4)c(Cl)c3)c2cc1OC
3. COc1cc2nccc(Oc3ccc(NC(=O)Nc4ccc(Cl)cn4)c(C)c3C)c2cc1OC
4. COc1cc2nccc(Oc3ccc(NC(=O)Nc4cccc5ccccc45)c(Cl)c3)c2cc1OC

Reply:
8.41
8.07
8.40
8.27

Report pIC50 for every entry below.
1. CCCNC(=O)Nc1ccc(Oc2ccnc3cc(OC)c(OC)cc23)cc1F
2. COc1cc2c(Oc3cc(C)c(NC(=O)Nc4ccc(F)cc4F)cc3C)ccnc2cc1OCCN1CCOCC1

Reply:
1: 8.54; 2: 8.36

* * *

- System: Human glioma cells GL07
- test summary: Antitumor effect on human glioma cells (GL07) transplanted into nude mice
- Format: in vivo
- assay conditions: Mus musculus, Glioma cell, 216 h, GL07, oral, 20 mg/kg once a day for 9 days, read-out: TGIR, % (tumor growth inhibition rate)
- Description: Antitumor Effect on Human Glioma Cells (GL07) Human glioma cells GL07 (obtained from Central Laboratories for Experimental Animals) were transplanted into nude mice. When the tumor volume became about 100 mm^3, the mice were grouped. In this case, grouping was carried out so that each group consisted of four mice and the average tumor volume was even among the groups. […]
Give measured inhibition in vivo at 20 mg/kg for each item. Keep answers brief.
Answers are plain numbers, in %.

Here's what some known entries look like.
[[record]]
molecule = "CCCNC(=O)Nc1ccc(Oc2ccnc3cc(OCCCO)c(OC)cc23)cc1Cl [Example 147]"
target = "Human glioma cells GL07"
measure_name = "inhibition in vivo at 20 mg/kg"
value = 34

[[record]]
molecule = "CCCNC(=O)Nc1ccc(Oc2ncnc3cc(OCCCCN4CCOCC4)c(OC)cc23)cc1Cl [Example 127]"
target = "Human glioma cells GL07"
measure_name = "inhibition in vivo at 20 mg/kg"
value = 25

[[record]]
molecule = "C#CCNC(=O)Nc1ccc(Oc2ncnc3cc(OC)c(OC)cc23)cc1 [Example 69]"
target = "Human glioma cells GL07"
measure_name = "inhibition in vivo at 20 mg/kg"
value = 26

[[record]]
molecule = "CCCNC(=O)Nc1ccc(Oc2ncnc3cc(OCc4ccncc4)c(OC)cc23)cc1Cl [Example 123]"
target = "Human glioma cells GL07"
measure_name = "inhibition in vivo at 20 mg/kg"
value = 31

[[record]]
molecule = "COc1cc2c(Oc3ccc(NC(=O)Nc4ccc(F)cc4F)c(Cl)c3)ccnc2cc1OCCN1CCOCC1 [Example 51]"
target = "Human glioma cells GL07"
measure_name = "inhibition in vivo at 20 mg/kg"
value = 65


List the reported inhibition in vivo at 20 mg/kg of each molecule below.
1. CCCNC(=O)Nc1ccc(Oc2ccnc3cc(OCCCN4CCOCC4)c(OC)cc23)cc1Cl [Example 151]
2. COc1cc2c(Oc3ccc(NC(=O)Nc4ccc(F)cc4F)c(Cl)c3)ncnc2cc1OCCN1CCOCC1 [Example 162]
3. CCCCNC(=O)Nc1ccc(Oc2ncnc3cc(OC)c(OC)cc23)cc1Cl [Example 77]
4. CCCNC(=O)Nc1ccc(Oc2ccnc3cc(OCCO)c(OC)cc23)cc1Cl [Example 149]
5. C=CCNC(=O)Nc1ccc(Oc2ncnc3cc(OC)c(OC)cc23)cc1Cl [Example 80]

Reply:
[44, 40, 26, 47, 52]

Working through the 7 molecules below one at a time, give inhibition in vivo at 20 mg/kg for each.
1. CCCN(CCC)C(=O)Nc1ccc(Oc2ncnc3cc(OC)c(OC)cc23)cc1Cl [Example 113]
2. CCCNC(=O)Nc1ccc(Oc2ccnc3cc(OCCN4CCN(C)CC4)c(OC)cc23)cc1Cl [Example 148]
3. COc1cc2ncnc(Oc3ccc(NC(=O)Nc4ccccc4C)cc3)c2cc1OC [Example 74]
4. CCN(CC)C(=O)Nc1ccc(Oc2ncnc3cc(OCc4ccncc4)c(OC)cc23)cc1Cl [Example 126]
5. CCCNC(=O)Nc1ccc(Oc2ncnc3cc(OCCCCCN4CCOCC4)c(OC)cc23)cc1Cl [Example 124]
6. COc1cc2c(Oc3ccc(NC(=O)Nc4ccc(F)cc4F)c(Cl)c3)ccnc2cc1OCCN1CCN(C)CC1 [Example 166]
7. COc1cc2c(Oc3ccc(NC(=O)N(C)C)c(Cl)c3)ncnc2cc1OCCCN1CCN(C)CC1 [Example 182]

Reply:
[61, 54, 28, 52, 27, 27, 31]

* * *

- Tested on: Human glioma cells GL07
- test summary: Antitumor effect on human glioma cells (GL07) transplanted into nude mice
- Format: in vivo
- assay conditions: Mus musculus, Glioma cell, 216 h, GL07, oral, 20 mg/kg once a day for 9 days, read-out: TGIR, % (tumor growth inhibition rate)
measure name: inhibition in vivo at 20 mg/kg (%)
One number for each entry, in %.

[[record]]
compound = "COc1cc2ncnc(Oc3ccc(NC(=O)NCc4ccccn4)cc3)c2cc1OC"
unit_tag = "%"
value = 67

[[record]]
compound = "COc1cc2ncnc(Oc3ccc(NC(=O)Nc4ccc(F)cc4F)c(F)c3)c2cc1OC"
unit_tag = "%"
value = 29

[[record]]
compound = "COc1cc2c(Oc3ccc(NC(=O)N(C)C)c(Cl)c3)ncnc2cc1OCc1ccncc1"
unit_tag = "%"
value = 45

[[record]]
compound = "CCCNC(=O)Nc1ccc(Oc2ncnc3cc(OCCN4CCOCC4)c(OC)cc23)cc1Cl"
unit_tag = "%"
value = 30

[[record]]
compound = "CCCNC(=O)Nc1ccc(Oc2ncnc3cc(OC)c(OC)cc23)cc1Cl"
unit_tag = "%"
value = 78


Hi there! I need inhibition in vivo at 20 mg/kg for each item below, if you can.
1. CCCNC(=O)Nc1ccc(Oc2ncnc3cc(OCCCCCn4ccnn4)c(OC)cc23)cc1Cl
2. CCCNC(=O)Nc1ccc(Oc2ccnc3cc(OCCCN(CCO)CCO)c(OC)cc23)cc1Cl
3. CCCNC(=O)Nc1cc(C)c(Oc2ccnc3cc(OCCCN4CCN(C)CC4)c(OC)cc23)cc1C
4. CCCNC(=O)Nc1ccc(Oc2ncnc3cc(OC)c(OCCN4CCN(C)CC4)cc23)cc1Cl
5. COc1cc2c(Oc3ccc(NC(=O)Nc4ccc(F)cc4F)c(Cl)c3)ncnc2cc1OCc1ccncc1
6. CCCNC(=O)N(COC)c1ccc(Oc2ncnc3cc(OC)c(OC)cc23)cc1Cl
7. CCCNC(=O)Nc1ccc(Oc2ccnc3cc(OCCCN(C)CCO)c(OC)cc23)cc1Cl

Reply:
30
24
22
23
39
71
44

Below is a list of compounds. For each, state its recorded inhibition in vivo at 20 mg/kg.
1. CCC(C)NC(=O)Nc1ccc(Oc2ncnc3cc(OC)c(OC)cc23)cc1Cl (centres unmarked)
2. CCCCNC(=O)Nc1ccc(Oc2ncnc3cc(OC)c(OC)cc23)cc1C
3. COc1cc2ncnc(Oc3ccc(NC(=O)Nc4ccc(F)cc4F)c(C)c3)c2cc1OC
4. COc1cc2nccc(Oc3ccc(NC(=O)Nc4ccc(Br)cn4)c(C)c3C)c2cc1OC
5. CCCNC(=O)Nc1ccc(Oc2ccnc3cc(OCCCN4CCN(C)CC4)c(OC)cc23)cc1Cl

Reply:
28
23
22
64
44
